Would you kindly list inhibition for each of these molecules?
- Target: DNA repair and recombination protein RAD54-like (Homo sapiens) (UniProt Q92698)
- Sequence (Q92698 whole entry, looked up): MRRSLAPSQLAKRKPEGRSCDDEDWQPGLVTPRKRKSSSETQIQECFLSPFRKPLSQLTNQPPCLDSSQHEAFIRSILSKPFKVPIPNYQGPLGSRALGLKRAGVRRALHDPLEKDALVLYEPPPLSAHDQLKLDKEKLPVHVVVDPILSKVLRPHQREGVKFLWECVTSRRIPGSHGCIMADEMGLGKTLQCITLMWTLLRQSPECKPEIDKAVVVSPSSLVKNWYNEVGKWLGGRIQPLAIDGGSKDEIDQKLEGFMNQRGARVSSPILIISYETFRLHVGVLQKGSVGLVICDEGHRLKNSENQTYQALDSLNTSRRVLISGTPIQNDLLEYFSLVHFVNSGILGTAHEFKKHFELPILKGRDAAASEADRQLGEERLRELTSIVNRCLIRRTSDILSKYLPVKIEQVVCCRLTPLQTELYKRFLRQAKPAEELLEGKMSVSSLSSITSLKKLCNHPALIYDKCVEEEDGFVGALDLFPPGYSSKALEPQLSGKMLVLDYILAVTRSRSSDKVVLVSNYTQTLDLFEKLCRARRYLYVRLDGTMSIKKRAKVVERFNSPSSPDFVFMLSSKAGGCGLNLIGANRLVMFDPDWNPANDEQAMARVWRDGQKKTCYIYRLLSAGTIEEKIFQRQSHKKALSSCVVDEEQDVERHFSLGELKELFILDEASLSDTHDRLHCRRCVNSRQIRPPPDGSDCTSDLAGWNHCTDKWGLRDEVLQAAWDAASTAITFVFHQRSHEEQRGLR
- Assay Text: inhibitors of human RAD54 branch migration, primary screen, biochemical, fluorescence, single point (AID 602329);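 also: 0% = median of neutral control wells and 100% = median of positive control wells; inhibitors cause a drop in the FAM fluorescence signal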
- Condition Context: RAD54 Holliday junction branch migration, FAM/BHQ fluorescence; at 10.4 µM; stronger effect = higher value
Screen size: about 360,000 compounds; about 510 (0.14%) were called active. This excerpt belongs to a sample that is enriched for actives.
Write it as a number; the unit % goes unstated.

The recorded inhibition for `O=C(c1cccnc1)N1CCCCN2[C@@H](CO)[C@H](c3ccc(C#Cc4ccccc4)cc3)[C@@H]2C1` is 1.81

Data point: `O=C(C[C@@H]1C[C@@H]2c3cc(NC(=O)Cc4ccncc4)ccc3O[C@@H]2[C@H](CO)O1)NCc1cccc(F)c1` ; inhibition = -0.719

For reference, reported inhibition for `C[C@@H]1CN([C@H](C)CO)C(=O)c2cccc(NS(=O)(=O)c3ccc(F)cc3)c2O[C@@H]1CN(C)S(=O)(=O)c1ccccc1` stands at 2.48

Recorded result, `C[C@@H]1CN([C@H](C)CO)C(=O)c2cccc(NS(=O)(=O)c3ccc(Cl)cc3)c2O[C@@H]1CN(C)Cc1ccc(Cl)c(Cl)c1` , inhibition: -2.03

So, `COc1ccc(CN(C)C[C@@H]2Oc3ccc(NC(=O)NC(C)C)cc3C(=O)N([C@@H](C)CO)C[C@H]2C)cc1` ? Its inhibition was 56.8

Per the records, this molecule ( `COc1ccc(NC(=O)N[C@@H]2CC[C@H](CC(=O)NC3CCC3)O[C@H]2CO)cc1` ) has inhibition equal to 4.37

Record `O=C(N[C@H]1CC[C@@H](CCNS(=O)(=O)c2cccc(Cl)c2)O[C@@H]1CO)c1ccncc1` . Reported inhibition: -2.66

inhibition in this record for `COCc1cn(CC[C@@H]2CC[C@@H](NC(=O)Nc3ccc(C(F)(F)F)cc3)[C@H](CO)O2)nn1` : -5.23
